Where do the numbers come from? From ChEMBL document CHEMBL1201862.

- Test system: OVCAR-3
- Procedure Details: NCI tumour cell line growth inhibition, 48 h
Calls of active or inactive are those of the source. No stated cut-off is given here; in the data, active = GI50 up to about 1.1 µM and inactive = higher.
Classes used: 1 = active, 0 = inactive

NC1CC2NC3CCCCC3NC2CC1N (stereo not given) ... 0
CCOC(=O)CCCNC(=O)CCCCC(=O)N(C)C ... 0
O=C(CN1CCN(C(=O)OCc2ccccc2)CCN(CC(=O)N2CCCCC2)CCN(C(=O)OCc2ccccc2)CC1)N1CCCCC1 ... 0
COc1ccc2c(c1)OC[C@@H]1c3cc4c(cc3O[C@H]21)OCO4 ... 0
CC(=O)OCC1OC(SC2=NC(=O)/C(=C/c3ccccc3)S2)C(OC(C)=O)C(OC(C)=O)C1OC(C)=O (stereo not given) ... 0
Cc1ccccc1S(=O)(=O)OC1NS(=O)(=O)c2ccccc21 (stereo not given) ... 0
CCOC(=O)c1sc2[n+](c1C)C(=O)/C(=C/c1ccccc1Cl)S2 ... 1
O=C1C2=C(SCCS2)C(=O)c2c(Sc3ccc(Cl)cc3)c(Sc3ccc(Cl)cc3)c(Sc3ccc(Cl)cc3)c(Sc3ccc(Cl)cc3)c21 ... 0
N#Cc1c(N)c2c(c(-c3ccccc3)c1-c1ccccc1)C(=O)N(NC(=S)Nc1ccccc1)C2=O ... 0
COc1ccc(-c2cc(C(=O)Nc3cc(C(F)(F)F)cc(C(F)(F)F)c3)c3ccccc3n2)cc1 ... 0
O=C(Cc1nc2ccccc2s1)Nc1cccc(C(F)(F)F)c1 ... 0
CCN1C/C(=C\c2ccc(Cl)cc2)c2nc(N)c(C#N)c(-c3ccc(Cl)cc3)c2C1 ... 0
O=c1[nH]c(=O)n(COC(CO)CO)cc1-c1ccccc1 ... 0
ClC1=C(Cl)C2OC3C=CCC3OC2C(Cl)=C1Cl (stereo not given) ... 0
O=C1[C@H]2ON(c3ccccc3)C(c3ccco3)[C@H]2C(=O)N1c1ccc(Cc2ccc(N3C(=O)[C@@H]4ON(c5ccccc5)C(c5ccco5)[C@@H]4C3=O)cc2)cc1 (stereo not given in full) ... 0
O=C1c2ccccc2NC(c2cc(Cl)cc(Cl)c2O)N1CCc1ccccn1 (stereo not given) ... 0
O=C1CCC2CCOc3ccc(O)c1c32 (stereo not given) ... 0
Cc1[nH]c2ccccc2c1-c1cc(-c2cc(-c3c(C)[nH]c4ccccc34)nc(N)n2)nc(N)n1 ... 0
CCOC(=O)c1ccc(/C(C)=N/NC(N)=S)cc1 ... 0
Nc1c(S(=O)(=O)O)cc(S(=O)(=O)O)c2ccc(/N=N/c3ccc(/C=C/c4ccc(/N=N/c5ccc6c(S(=O)(=O)O)cc(S(=O)(=O)O)c(N)c6c5O)cc4S(=O)(=O)O)c(S(=O)(=O)O)c3)c(O)c12 ... 0

----------
- Test system: UO-31
- Procedure Details: NCI tumour cell line growth inhibition, 48 h
Activity calls are given as the source filed them. Cut-off read from the data, not from the text of the source: active = GI50 up to about 1.1 µM and inactive = higher.
Attribute Measured: GI50

O=C(Nc1nnc(S)[nH]1)C(=O)C(C(=O)c1ccc2ccccc2c1)C1OC(=O)c2ccccc21 (centres undefined) ... 15.7 µM (inactive)
COC1(OC)C=CC(=O)C=C1 ... 1.89 µM (inactive)
COC(=O)CCC(NC(=O)OC(C)(C)C)C(=O)NC(Cc1ccc(NC(=O)CCCC(C)=O)cc1)C(=O)NC(CCC(=O)OC)C(=O)OC (centres undefined) ... > 100 µM (inactive)
CC1(C)[C@@H]2C[C@H]1[C@@H](Cc1cccc(C[C@H]3c4cc(-c5ccccn5)ncc4[C@H]4C[C@@H]3C4(C)C)c1)c1cc(-c3ccccn3)ncc12 ... 1.22 µM (inactive)
CC1(C)OC[C@H](C(=N)OCc2ccccc2)O1 ... > 100 µM (inactive)
COc1ccc2nc3c(C)cc4ccccc4n3c2c1 ... 52 µM (inactive)
c1ccc(C2N3CCCCC3[C@@H]3c4[nH]c5ccccc5c4CCN23)nc1 (some centres undefined) ... > 100 µM (inactive)
Nc1nnnn1NC(=O)NCCCl ... > 10 µM (inactive)
Cn1cc2ccccc2c1-c1nc(F)nc(Oc2ccc3c(c2)CC[C@@H]2C3CC[C@@]3(C)C2CC[C@@H]3O)n1 (some centres undefined) ... 24.4 µM (inactive)

----------
- Tested on: DU-145
- Procedure Details: NCI tumour cell line growth inhibition, 48 h
Activity calls are given as the source filed them. Cut-off read from the data, not from the text of the source: active = GI50 up to about 1.1 µM and inactive = higher.
Attribute Measured: GI50

NC1CC2NC3CCCCC3NC2CC1N (stereo not given) ... 50.2 µM (inactive)
NNC(=O)CCCCCCCC(=O)O ... > 100 µM (inactive)
COc1ccc(C(SC2C(O)C(CO)OC2n2ccc(=O)[nH]c2=O)(c2ccccc2)c2ccc(OC)cc2)cc1 (stereo not given) ... 18.4 µM (inactive)
O=C1C[C@@H](c2ccc(O)cc2)[C@@]2(O1)C(=O)O[C@H]([C@@H](O)CO)[C@@H]2O ... > 100 µM (inactive)
CCOc1ncn(-c2ccc(NC(=S)Nc3cccc(O)c3)cc2)n1 ... > 100 µM (inactive)
CCCCC(CC)C(=O)Oc1ccc(C(=O)c2ccccc2)c(O)c1 (stereo not given) ... 57 µM (inactive)
Nc1nc(N)c2nc(CN(C=O)c3ccc(C(=O)O)cc3)cnc2n1 ... 7.38 µM (inactive)
O=C1CCCCCC1CC(Sc1ccccc1)Sc1ccccc1 (stereo not given) ... > 100 µM (inactive)
O=S(=O)(O)c1ccc(/N=N/c2ccc(/N=N/c3c(O)ccc4ccc(S(=O)(=O)O)cc34)cc2)cc1 ... > 100 µM (inactive)
Cc1ccc(N2C3=C(CC4=C2CC(C)(C)CC4=O)C(=O)CC(C)(C)C3)cc1 ... > 100 µM (inactive)
C=C1C(=O)O[C@@H]2C(=O)[C@@H](C)[C@@H]3C=CC(=O)[C@@]3(C)[C@@H](OC(=O)/C(C)=C\C)[C@H]12 [MULTISTATIN] ... 1.57 µM (inactive)
Cn1nc2ccc(Nc3cc(=O)[nH]c4ccc5nn(C)nc5c34)cc2n1 ... > 100 µM (inactive)
CCN(CC)CCC1CCCCN1CC(=O)N1c2ccccc2NC(=O)CC1C (stereo not given) ... > 100 µM (inactive)
O=C(CN1CCN(C(=O)OCc2ccccc2)CCN(CC(=O)N2CCCCC2)CCN(C(=O)OCc2ccccc2)CC1)N1CCCCC1 ... 21.4 µM (inactive)
NNC(=O)c1cc(=O)[nH][nH]1 ... > 100 µM (inactive)
CC1(C)[C@@H]2C[C@H]1[C@@H](Cc1cccc(C[C@H]3c4cc(-c5ccccn5)ncc4[C@H]4C[C@@H]3C4(C)C)c1)c1cc(-c3ccccn3)ncc12 ... 1.09 µM (active)
COc1cc(-c2oc3c(OC)c(OC)cc(O)c3c(=O)c2OC)ccc1O [TERNATIN] ... 7.43 µM (inactive)
O=C(CC(O)(C(F)(F)Cl)C(F)(F)Cl)CC(O)(C(F)(F)Cl)C(F)(F)Cl ... 0.515 µM (active)
Cc1c(C#N)c(N)[nH]c(=S)c1C#N ... > 100 µM (inactive)
COc1cc2c(c(OC)c1OC)-c1ccc(OC)c(=O)cc1[C@@H](NC(=O)c1ccccc1)CC2 ... 0.0199 µM (active)
CNC(=O)CCCNC(=O)CCCC(=O)N(C)C ... > 100 µM (inactive)
COc1ccc(/C=C/c2ccnc3ccccc23)c(OC)c1 ... > 10 µM (inactive)
O=C(N/N=C/c1ccco1)c1cc(I)cc(I)c1O ... 23.4 µM (inactive)
CCCCOCn1c(=O)[nH]c(=O)c2ccccc21 ... > 100 µM (inactive)
Cc1cccc2c(NCCCN(C)C)c3c([N+](=O)[O-])ccc(C)c3nc12 ... 0.0887 µM (active)
O=S(=O)(c1cc(Cl)ccc1Cl)N1CCN(c2ccc(Cl)c(Cl)c2)CC1 ... > 100 µM (inactive)
CN(C)CCNc1ccccn1 ... > 100 µM (inactive)
COc1ccc(Nc2nc(N)c(C(=O)c3ccccc3)s2)cc1 ... 0.178 µM (active)
COc1cc(C(=O)OCCn2[nH]c(-c3ccc(Cl)cc3)nc2=S)cc(OC)c1OC ... 23.6 µM (inactive)
CN1C(c2ccccc2)=CC(=O)C(O)=C(c2ccccc2)S1(=O)=O ... > 100 µM (inactive)

----------
- Tested on: NCI-H460
- Procedure Details: NCI tumour cell line growth inhibition, 48 h
Activity calls are given as the source filed them. Cut-off read from the data, not from the text of the source: active = GI50 up to about 1.1 µM and inactive = higher.
Classes used: yes (1) for active, no (0) for inactive

CS(=O)(=O)OCCCOS(C)(=O)=O ... no (0)
CC12CC(=O)OC(Cc3ccccc31)O2 (stereo unspecified) ... no (0)
CCOC(=O)c1sc2c(C(=O)OCC)n3ccccc3c2c1N ... no (0)
O=[N+]([O-])c1ccc(C2=Nc3ccccc3[S+]([O-])C(c3ccccc3)C2)cc1 (stereo unspecified) ... no (0)
CN(C)CCn1c(=O)c2ccc(NCCNCCO)c3c(=O)c4ccccc4n(c1=O)c23 ... yes (1)
CCOC(=O)c1sc2[n+](c1C)C(=O)/C(=C/c1ccccc1Cl)S2 ... yes (1)
CCN(CC)Cc1c(/C=C\c2cc(OC)c(OC)c(OC)c2)ccc(OC)c1O ... no (0)
O=C(O)CN(CC(=O)O)Cc1cc2c(cc1O)Oc1cc(O)c(CN(CC(=O)O)CC(=O)O)cc1C21OC(=O)c2ccccc21 ... no (0)
NC1=C(Cl)C(=O)c2c(O)ccc(O)c2C1=O ... no (0)
CCOC(=O)c1ccc(/C(C)=N/NC(N)=S)cc1 ... no (0)
COc1ccc(C(=O)c2ccc(-n3c4ccccc4c4ccc5c(c43)C(=O)C=CC5=O)cc2)cc1 ... no (0)
CC(=O)Nc1ccc(S(=O)(=O)N/N=C/c2cc(I)cc([N+](=O)[O-])c2O)cc1 ... no (0)
CCN(CC)Cc1cc(/N=N\c2c(O)ccc3c(/N=N\c4ccc(O)c(CN(CC)CC)c4)c(O)ccc23)ccc1O ... no (0)
Clc1cc(OCc2nn3c(Cc4ccccc4)nnc3s2)c(Cl)cc1OCc1nn2c(Cc3ccccc3)nnc2s1 ... no (0)
CN1C(=O)C(C#N)C2C[C@@]1(C)Oc1ccccc12 (stereo partly specified) ... no (0)
Cc1cc2sc(C)[n+](CCCOS(=O)(=O)[O-])c2cc1C ... no (0)
OC[C@H]1O[C@@H](Oc2cc(O)cc(/C=C/c3ccc(O)cc3)c2)[C@H](O)[C@@H](O)[C@@H]1O ... no (0)
CCOc1ccc(/C=N\N2C(=O)c3ccccc3C2=O)cc1 ... no (0)
COc1cccc(-c2nc(-c3cnccn3)n(C3OC(CO)C(O)C3O)n2)c1 (stereo unspecified) ... no (0)
Cc1cc(NS(=O)(=O)c2ccc(NC(=O)c3cccc4c(=O)c5ccccc5[nH]c34)cc2)no1 ... no (0)
N#C/C(=C\c1ccc(Cl)cc1)c1nc2ccccc2c(=O)[nH]1 ... no (0)
